Test system: Nucleic Acid
PROPERTY: ΔTm

>>> value_observed("Cl.Cl.N=C(N)Nc1ccc(-c2ccc(-c3ccc(NC(=N)N)cc3C(F)(F)F)o2)c(C(F)(F)F)c1")
0
>>> value_observed("N=C(Nc1ccc(-c2ccc(-c3ccc(NC(=N)C4CCCCC4)cc3)o2)cc1)C1CCCCC1")
12.8
>>> value_observed("N=C(Nc1ccc(-c2ccc(-c3ccc(NC(=N)c4ccccn4)cc3)o2)cc1)c1ccccn1")
7.5
>>> value_observed("N=C(N)c1ccc(-c2ccc(-c3ccc(C(=N)N)cc3)o2)cc1")
11.7
>>> value_observed("Cc1cc(NC(=N)N)cc(C)c1-c1ccc(-c2c(C)cc(NC(=N)N)cc2C)o1")
1.4
>>> value_observed("COc1cc(NC(=N)N)ccc1-c1ccc(-c2ccc(NC(=N)N)cc2OC)o1.Cl.Cl")
2.8
>>> value_observed("Cc1cc(NC(=N)c2ccccn2)ccc1-c1ccc(-c2ccc(NC(=N)c3ccccn3)cc2C)o1")
8.9
>>> value_observed("COc1cc(NC(=N)c2ccccn2)ccc1-c1ccc(-c2ccc(NC(=N)c3ccccn3)cc2OC)o1")
7.8
>>> value_observed("Cc1cc(NC(=N)c2ccccn2)cc(C)c1-c1ccc(-c2c(C)cc(NC(=N)c3ccccn3)cc2C)o1")
1.2
